For each record, write down the corresponding Activity.
System: HepG2
Test: Compound was tested in vitro for up-regulation of low density lipoprotein (LDL) receptor in human hepatocytes (HepG2 cells) at a concentration 3 uM
Assay type: functional
Reply numerically in %, unit not repeated.

Q: Find Activity (HepG2) for the entry "Cc1ccc(NC(=O)CCC2CCCCC2)cc1NC(=O)c1cccc(O)c1"
A: 59

Q: Find Activity (HepG2) for the entry "Cc1ccc(NC(=O)CCC2CCCCC2)cc1NC(=O)c1ccc(N)cc1"
A: 58

Q: Find Activity (HepG2) for the entry "Cc1ccc(NC(=O)NCC2CCCCC2)cc1NC(=O)c1ccc(O)cc1"
A: 10

Q: Find Activity (HepG2) for the entry "Cc1ccc2[nH]c(-c3cc(NC(=O)CCC4CCCCC4)ccc3C)nc2c1"
A: 91

Q: Find Activity (HepG2) for the entry "Cc1ccc(NC(=O)OCC2CCCCC2)cc1NC(=O)c1ccc(O)cc1"
A: 16

Q: Find Activity (HepG2) for the entry "Cc1ccc(C(=O)CCCC2CCCCC2)cc1NC(=O)c1ccc(O)cc1"
A: 10

Q: Find Activity (HepG2) for the entry "Cc1ccc(NC(=O)CCC2CCCCC2)cc1/C=C(\C#N)c1cccnc1"
A: 126

Q: Find Activity (HepG2) for the entry "CC[C@H](C)C(=O)O[C@H]1C[C@@H](C)C=C2C=C[C@H](C)[C@H](CC[C@@H]3C[C@@H](O)CC(=O)O3)[C@H]21"
A: 70

Q: Find Activity (HepG2) for the entry "Cc1ccc(NC(=O)CCN2CCCCC2)cc1NC(=O)c1ccc(O)cc1"
A: -2

Q: Find Activity (HepG2) for the entry "Cc1ccc(NC(=O)CCc2ccccc2)cc1NC(=O)c1ccc(O)cc1"
A: -20

Q: Find Activity (HepG2) for the entry "Cc1ccc(NC(=O)CCC2CCCCC2)cc1NC(=O)c1cccnc1"
A: 83

Q: Find Activity (HepG2) for the entry "Cc1ccc(NC(=O)CCC2CCCCC2)cc1NC(=O)c1ccc2c(c1)OCO2"
A: 111

Q: Find Activity (HepG2) for the entry "Cc1ccc(NC(=O)CCC2CCCCC2)cc1NCc1ccc(O)cc1"
A: -11

Q: Find Activity (HepG2) for the entry "Cc1ccc(NC(=O)CCC2CCCCC2)cc1NC(=O)c1ccncc1"
A: -5

Q: Find Activity (HepG2) for the entry "CC(=O)Oc1ccc(C(=O)Nc2cc(NC(=O)CCC3CCCCC3)ccc2C)cc1"
A: 82

Q: Find Activity (HepG2) for the entry "CC(=O)Oc1ccc(C(=O)Nc2cccc(NC(=O)CCC3CCCCC3)c2)cc1"
A: 6

Q: Find Activity (HepG2) for the entry "Cc1ccc(NC(=O)CCC2CCCCC2)cc1-c1nc2ccccc2[nH]1"
A: 45

Q: Find Activity (HepG2) for the entry "Cc1ccc(NC(=O)CCC2CCCCC2)cc1NC(=O)c1ccc(CO)cc1"
A: 44

Q: Find Activity (HepG2) for the entry "Cc1ccc(NC(=O)CCC2CCCCC2)cc1/C=C(\C#N)c1ccc2c(c1)OCO2"
A: 108

Q: Find Activity (HepG2) for the entry "Cc1ccc(NC(=O)CCCC2CCCCC2)cc1NC(=O)c1ccc(O)cc1"
A: 32

Q: Find Activity (HepG2) for the entry "Cc1ccc(C(=O)NCCC2CCCCC2)cc1NC(=O)c1ccc(O)cc1"
A: 75

Q: Find Activity (HepG2) for the entry "Cc1ccc(NC(=O)CCC2CCCCC2)cc1NC(=O)c1ccccc1O"
A: 0

Q: Find Activity (HepG2) for the entry "COc1ccc(NC(=O)CCC2CCCCC2)cc1NC(=O)c1ccc(OC(C)=O)cc1"
A: -13

Q: Find Activity (HepG2) for the entry "Cc1ccc(NC(=O)CC2CCCCC2)cc1NC(=O)c1ccc(O)cc1"
A: 3

Q: Find Activity (HepG2) for the entry "Cc1ccc(NC(=O)CCC2CCCCC2)cc1NC(=O)c1ccc([N+](=O)[O-])cc1"
A: 11

Q: Find Activity (HepG2) for the entry "Cc1ccc(NC(=O)CCC2CCCCC2)cc1-c1nc2cc(O)ccc2[nH]1"
A: 134

Q: Find Activity (HepG2) for the entry "Cc1ccc(NC(=O)CCC2CCCCC2)cc1NC(=O)C1CCCCC1"
A: 0

Q: Find Activity (HepG2) for the entry "Cc1ccc(NC(=O)CCC2CCCCC2)cc1NC(=O)c1cc[n+]([O-])cc1"
A: 7

Q: Find Activity (HepG2) for the entry "O=C(CCC1CCCCC1)Nc1ccc(O)c(NC(=O)c2ccc(O)cc2)c1"
A: -3

Q: Find Activity (HepG2) for the entry "Cc1ccc(NC(=O)CCC2CCCCC2)cc1NC(=O)c1ccc(O)cc1"
A: 80

Q: Find Activity (HepG2) for the entry "O=C(CCC1CCCCC1)Nc1ccc(Br)c(NC(=O)c2ccc(O)cc2)c1"
A: 6
